- Tgt: Rac GTPase-activating protein 1 (Homo sapiens) (UniProt Q9H0H5)
- Sequence (Q9H0H5 whole entry, looked up): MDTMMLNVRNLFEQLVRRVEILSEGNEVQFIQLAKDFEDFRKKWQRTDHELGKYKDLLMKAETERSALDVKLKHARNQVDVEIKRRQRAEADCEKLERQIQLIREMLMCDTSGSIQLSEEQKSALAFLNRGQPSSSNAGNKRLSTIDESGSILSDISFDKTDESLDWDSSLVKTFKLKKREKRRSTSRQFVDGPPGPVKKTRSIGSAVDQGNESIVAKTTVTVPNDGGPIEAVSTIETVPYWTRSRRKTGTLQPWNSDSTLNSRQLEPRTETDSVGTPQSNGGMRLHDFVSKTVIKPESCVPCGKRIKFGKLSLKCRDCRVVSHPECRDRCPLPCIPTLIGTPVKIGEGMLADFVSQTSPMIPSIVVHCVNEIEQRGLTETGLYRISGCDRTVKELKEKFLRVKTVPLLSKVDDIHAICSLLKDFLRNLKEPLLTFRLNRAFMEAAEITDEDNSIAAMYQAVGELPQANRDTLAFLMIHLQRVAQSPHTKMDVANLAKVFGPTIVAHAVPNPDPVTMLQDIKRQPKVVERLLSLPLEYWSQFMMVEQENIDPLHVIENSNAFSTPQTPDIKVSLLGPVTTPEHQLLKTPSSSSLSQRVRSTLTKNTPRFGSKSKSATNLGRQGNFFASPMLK
- Test method notes: blockers of MgcRacGAP-driven Rac1 GTP hydrolysis – biochemical, ADP Hunter fluorescence, primary and confirmatory, confirmation (AID 624330);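 note: fluorescence reports GDP produced by GAP-driven GTP hydrolysis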
- Experimental context: MgcRacGAP-stimulated Rac1 GTP hydrolysis, at 30 µM, active compounds read high, GST-tagged Rac1 F28L mutant substrate
The campaign covered roughly 340,000 compounds. About 2,100 (0.62%) were called active. A selection follows. Potency and affinity values are given separately.
Value type: inhibition (%)
# number only, unit % dropped from output

Request: Any idea what inhibition was measured for COc1ccc(Br)cc1CN(C)CC(=O)NCCc1ccc(S(N)(=O)=O)cc1 ?
Result: -1.98

Request: Next: Oc1ccc(N=Cc2ccc(OCc3ccccc3)cc2)cc1
Result: 9.78

Request: Next: CC1CCCC(C)N1/N=C/c1ccc(O)cc1 (stereo not given)
Result: 21.4

Request: Next: CC1C(=O)NN=C1C(=O)N/N=C/c1ccco1 (stereo not given)
Result: 14.2

Request: Next: COc1ccc(Br)cc1CN(C)CC(=O)NCc1ccc(F)cc1
Result: 30.8

Request: Next: O=S(=O)(NCC(c1cccnc1)N1CCN(c2ccc(F)cc2)CC1)c1cccs1 (stereo not given)
Result: 5.99

Request: Next: Oc1ccc(C=NC2CCCCC2)cc1
Result: -1.9

Request: Next: O=S(=O)(NCC(c1cccnc1)N1CCN(c2ccccc2)CC1)c1cccs1 (stereo not given)
Result: 2.98

Request: Next: O=C1CN(C(=O)COC(=O)c2ccc(N3CCCCCC3)c([N+](=O)[O-])c2)c2ccccc2N1
Result: 13.5

Request: Next: C=CCOc1ccc(/C=N/NC(=O)C(C)Sc2ccccn2)cc1OC (stereo not given)
Result: 6.97

Request: Next: Cc1c(O)ccc2c3c(c(=O)oc12)CCC(C)C3 (stereo not given)
Result: 29.3

Request: Next: COc1ccccc1NC(=S)N(CCN(C)C)C(C)c1ccncc1 (stereo not given)
Result: 4.01

Request: Next: CC1CCCCC1NC(=O)CCn1c(=O)sc2ccccc21 (stereo not given)
Result: 12.2

Request: Next: C[C@H](NC(=O)C1CC(=O)N(c2ccc3c(c2)OCCO3)C1)C(=O)N1CCCCC1 (stereo not given in full)
Result: 7.93

Request: Next: CCOC(=O)c1cc(CC)sc1NC(=O)Cc1ccsc1
Result: 14.6

Request: Next: CC1C(=O)NN=C1C(=O)N/N=C/c1cccs1 (stereo not given)
Result: 17.2

Request: Next: CC(c1nnc(SCC(=O)NC(=O)NCc2ccco2)n1-c1ccc(Cl)cc1)N(C)C (stereo not given)
Result: 4.03

Request: Next: COc1ccc(/C=N\NC(=O)c2cc(O)c(O)c(O)c2)cc1CN1CCN(c2ccc(F)cc2)CC1
Result: -36.7

Request: Next: COc1ccc(CN(CCc2ccccc2)Cc2ccccc2)cc1OC
Result: 28.5

Request: Next: Cn1c(=Nc2ccc(N3CCOCC3)cc2)ccc2ccccc21
Result: 16.1

Request: Next: COc1cc(C(=O)N/N=C/c2ccc3c(c2)c2ccccc2n3C)ccc1O
Result: 22.2

Request: Next: Cc1cc([N+](=O)[O-])nn1CC(=O)NCc1ccc(Cl)cc1
Result: 0.89

Request: Next: Cc1nc(NCC(c2ccccc2)N(C)C)c2c(C)c(C)sc2n1 (stereo not given)
Result: 7.93

Request: Next: Oc1c(C=C2N=c3ccccc3=N2)sc(=S)n1-c1ccc2ccccc2c1
Result: 9.34

Request: Next: COc1ccc(/C=N/NC(=O)CCCC(=O)NC2CCCCC2)cc1
Result: 2.54

Request: Next: COc1ccc2[nH]c(C(=O)N/N=C/c3ccc(OC)c(O)c3)cc2c1
Result: 26.2

Request: Next: COCCNC(=O)CSc1ncnc2sc(-c3ccccc3)cc12
Result: 6.39

Request: Next: COc1ccc(N2CCN(C(c3cccs3)C(C)NS(C)(=O)=O)CC2)cc1 (stereo not given)
Result: 27.8

Request: Next: c1ccc(Cn2nnnc2C(c2cccnc2)N2CCN(c3ccccc3)CC2)cc1 (stereo not given)
Result: 2.89

Request: Next: Cc1ccc(CN2[C@@H](Cc3ccccc3)C(=O)CS2(=O)=O)cc1
Result: 3.43

Request: Next: CCN(CC)C(=O)[C@H]1C[C@H](CC(=O)NCCCN(C)C)C(=O)N2CCc3c([nH]c4ccc(Cl)cc34)[C@]12C
Result: 4.62

Request: Next: O=C(O)c1cc2ccc(O)cc2oc1=O
Result: 4.89

Request: Next: CC(Oc1ccc(Br)cc1)C(=O)Nc1ccc(S(=O)(=O)Nc2nccs2)cc1 (stereo not given)
Result: 3.41

Request: Next: Cc1ccc(N(CC(=O)Nc2ccccc2-c2ccccc2)S(=O)(=O)c2ccccc2)cc1
Result: 1.42

Request: Next: CCCCn1c(SCC(=O)Nc2cc(C)[nH]n2)nc2ccsc2c1=O
Result: 9.99

Request: Next: Cc1cc(C(=O)Nc2c(C)n(C)n(-c3ccccc3)c2=O)on1
Result: 11.2

Request: Next: O=C(N/N=C/c1ccncc1)c1ccc(-n2cccc2)cc1
Result: -9.21

Request: Next: Oc1c(C=Nc2ccccc2)sc2ccccc12
Result: 6.75

Request: Next: NC(=O)Cn1cc(/C=N\NS(=O)(=O)c2ccc(Cl)cc2)c2ccccc21
Result: 20

Request: Next: COc1ccc(N2CCN(C(c3ccccc3)c3nnnn3Cc3ccc(F)cc3)CC2)cc1 (stereo not given)
Result: 19

Request: Next: COc1cc(/C=N/NC(=O)CCC(=O)NC2CCCCC2)ccc1C
Result: 9.37

Request: Next: CCCOc1ccc(/C=N/NC(=O)C(C)Sc2ccccn2)cc1OCC (stereo not given)
Result: 9.98

Request: Next: COc1ccc(/C=N/NC(=O)CC(=O)NC2CCCCC2)cc1
Result: 6.51

Request: Next: CN1C(=O)CCS(=O)(=O)C1c1ccc(Cl)c(Cl)c1 (stereo not given)
Result: 8.53

Request: Next: COC(=O)c1ccc(/C=N/NC(=O)CC(=O)NC2CCCCC2)cc1
Result: -3.55

----------
What inhibition was measured for each of the following?
- Tgt: Rac GTPase-activating protein 1 (Homo sapiens)
- Test method notes: blockers of MgcRacGAP-driven Rac1 GTP hydrolysis – biochemical, ADP Hunter fluorescence, primary and confirmatory, confirmation (AID 624330);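 note: fluorescence reports GDP produced by GAP-driven GTP hydrolysis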
- Experimental context: MgcRacGAP-stimulated Rac1 GTP hydrolysis, at 30 µM, active compounds read high, GST-tagged Rac1 F28L mutant substrate
Out of some 340,000 compounds screened, about 2,100 (0.62%) were called active. A selection follows. Potency and affinity values are given separately.
# number only, unit % dropped from output

Request: Missing value: inhibition, Rac GTPase-activating protein 1 (Homo sapiens), entry COc1ccccc1NC(=O)CCC(=O)c1ccc(-c2ccccc2)cc1 . Fill in?
Result: -5.2

Request: Next: Cc1cc(C)c2[nH]c(=O)c(C(c3nnnn3C(C)(C)C)N3CCN(C(=O)c4ccco4)CC3)cc2c1 (stereo unspecified)
Result: 1.84

Request: Next: Cc1ccc(NC(=O)C2=C(O)c3ccccc3N(C)S2(=O)=O)cc1
Result: 10.1

Request: Next: O=C(O)c1ccc(C=NNC(=O)c2ccccc2NS(=O)(=O)c2cccs2)cc1
Result: 7.04

Request: Next: O=C(c1cccnc1)N1CCN(C(=O)c2cccc(Cl)c2)CC1
Result: -2.27

Request: Next: CNC(=O)c1oc(-c2ccccc2)nc1C
Result: 10.8

Request: Next: CC(C)CC(CO)N1CCN(C(=O)c2cccc(Cl)c2)CCC1=O (stereo unspecified)
Result: 2.07

Request: Next: O=C(Nc1ccc(-c2ccccc2)cc1)c1ccccc1
Result: 10.2

Request: Next: CCOC(=O)C1CCN(C(=O)c2cccc(Cl)c2)CC1
Result: 6.23

Request: Next: COC(=O)C1CCN(Cc2cn(Cc3ccccc3)nc2-c2cc3ccccc3o2)CC1
Result: 13.5

Request: Next: CN1CCCN(C(=O)c2cccc(Cl)c2)CC1
Result: 3.23

----------
What inhibition was measured for each of the following?
- Tgt: Rac GTPase-activating protein 1 (Homo sapiens) (UniProt Q9H0H5)
- Test method notes: blockers of MgcRacGAP-driven Rac1 GTP hydrolysis – biochemical, ADP Hunter fluorescence, primary and confirmatory, confirmation (AID 624330);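 note: fluorescence reports GDP produced by GAP-driven GTP hydrolysis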
- Experimental context: MgcRacGAP-stimulated Rac1 GTP hydrolysis, at 30 µM, active compounds read high, GST-tagged Rac1 F28L mutant substrate
In all, about 340,000 compounds went through this assay and about 2,100 (0.62%) were called active. Only a sample is shown. Results with a measured potency or affinity are listed apart.
# number only, unit % dropped from output

Request: Any idea what inhibition was measured for O=C(N/N=C/c1ccc([N+](=O)[O-])o1)c1cc(-c2cccc(Br)c2)nc2ccccc12 ?
Result: -2.15

Request: Next: CCCc1ccc2oc(C(=O)N3CCCC3)c(C)c2c1
Result: 3.8

Request: Next: CCc1ccc(NC(=O)c2n[nH]c(=O)c3ccccc23)cc1
Result: 2.23

Request: Next: COCCOc1cc(NC(=O)CS(=O)(=O)CC(=O)N(C)C)c(Cl)cc1Cl
Result: -10.1

Request: Next: COc1ccc(C(O)(C(C)C)C(CN2CCOCC2)c2ccc(Cl)cc2)cc1 (stereo not given)
Result: 3.23

Request: Next: CCn1c(SCC(=O)Nc2ccc(F)cc2)nc2ccccc2c1=O
Result: 0.4

Request: Next: NS(=O)(=O)c1ccc(NC(=S)NNC(=O)c2ccc(Br)o2)cc1
Result: 4.44

Request: Next: O=C(c1ccccc1)c1ccc2nc(-c3ccco3)c(-c3ccco3)nc2c1
Result: 25.8

Request: Next: O=C(Nc1ccccc1)c1ccc2nc(-c3ccco3)c(-c3ccco3)nc2c1
Result: 14.3

Request: Next: CCN(c1ccccc1)S(=O)(=O)c1ccc(C(=O)NCCCN2CCOCC2)cc1
Result: 8.29

Attribution: PubChem BioAssay AID624330
